Target: T1, Extracellular domain of human PD1 (huPD1-ECD) (human, UniProt Q15116 25-169, biotinylated in the ligand inhibition assay (sites not given))
T1 construct: Expressed with a hexahistidine tag or as Fc fusion; also called biotinylated PD-1
T1 sequence (Q15116 25-169 limits assumed): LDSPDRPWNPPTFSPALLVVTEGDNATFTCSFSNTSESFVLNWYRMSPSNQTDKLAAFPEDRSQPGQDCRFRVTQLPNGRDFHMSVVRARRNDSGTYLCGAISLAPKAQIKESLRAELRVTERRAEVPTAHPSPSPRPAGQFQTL
Test: MSD ligand inhibition, competitor coated cynoPDL1-ECD
Record form. Attribute: percentage ligand not blocked at 10 µg/ml. Fill in for each entry.
Please report the result as a number followed by the unit.

Exam item: // returns reported percentage ligand not blocked at 10 µg/ml for input PD1B160 (antibody, human IgG2, kappa, V domains shown, IgG2sigma/kappa; VH 42, VL 51; also called PD1H131/PD1L101) VH: QVQLVQSGAEVKKPGSSVKVSCKASGGTFSSYAISWVRQAPGQGLEWMGGIIPIFDTANYAQKFQGRVTITADESTSTAYMELSSLRSEDTAVYYCARPGLAAAYDTGNLDYWGQGTLVTVSS VL: EIVLTQSPATLSLSPGERATLSCRASQSVDSYLAWYQQKPGQAPRLLIKDASDRATGIPARFSGSGSGTDFTLTISSLEPEDFAVYYCQQRGNWPLTFGQGTKVEIKR
Marked response: 3%

Exam item: // returns reported percentage ligand not blocked at 10 µg/ml for input PD1B70 (antibody, V domains shown, Tested as IgG2sigma/kappa; also called PD1H107/PH9L3) VH: QVQLVQSGAEVKKPGSSVKVSCKASGGTFSSYAISWVRQAPGQGLEWMGGIIPIFGTANYAQKFQGRVTITADESTSTAYMELSSLRSEDTAVYYCARGYVRATGMLDYWGQGTLVTVSS VL: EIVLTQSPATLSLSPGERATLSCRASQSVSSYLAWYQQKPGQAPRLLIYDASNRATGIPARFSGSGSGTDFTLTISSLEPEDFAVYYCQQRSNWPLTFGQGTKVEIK
Marked response: 6%

Exam item: // returns reported percentage ligand not blocked at 10 µg/ml for input PD1B192 (antibody, human IgG2, kappa, V domains shown, IgG2sigma/kappa; VH 43, VL 57; also called PD1H3/PD1L133) VH: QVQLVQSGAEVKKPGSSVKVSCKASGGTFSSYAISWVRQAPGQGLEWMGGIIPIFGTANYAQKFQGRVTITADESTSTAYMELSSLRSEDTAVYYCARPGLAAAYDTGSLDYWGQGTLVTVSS VL: EIVLTQSPATLSLSPGERATLSCRASQSVDSYLAWYQQKPGQAPRLLIHDASNRATGIPARFSGSGSGTDFTLTISSLEPEDFAVYYCQQRNYWPLTFGQGTKVEIKR
Marked response: 5%

Exam item: // returns reported percentage ligand not blocked at 10 µg/ml for input PD1B71 (antibody, V domains shown, Tested as IgG2sigma/kappa; also called PD1H108/PH9L3) VH: QVQLVQSGAEVKKPGSSVKVSCKASGGTFSSYAISWVRQAPGQGLEWMGGIIPIFGTANYAQKFQGRVTITADESTSTAYMELSSLRSEDTAVYYCARGTLDRTGHLDYWGQGTLVTVSS VL: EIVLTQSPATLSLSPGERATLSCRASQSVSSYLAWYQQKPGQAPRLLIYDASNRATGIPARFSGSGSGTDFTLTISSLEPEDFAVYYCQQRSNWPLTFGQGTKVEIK
Marked response: 9%

Exam item: // returns reported percentage ligand not blocked at 10 µg/ml for input PD1B185 (antibody, human IgG2, kappa, V domains shown, IgG2sigma/kappa; VH 43, VL 55; also called PD1H3/PD1L132) VH: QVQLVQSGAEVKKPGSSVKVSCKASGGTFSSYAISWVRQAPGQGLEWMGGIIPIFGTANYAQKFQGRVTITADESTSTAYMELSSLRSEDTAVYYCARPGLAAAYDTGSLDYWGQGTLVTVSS VL: EIVLTQSPATLSLSPGERATLSCRASQSVRNYLAWYQQKPGQAPRLLIYDASDRATGIPARFSGSGSGTDFTLTISSLEPEDFAVYYCQQRWNWPLTFGQGTKVEIKR
Marked response: 5%
